# Mean % WT Binding values compiled below
Target: human CD33 T226A (human, UniProt P20138 18-364)
Sequence (P20138 18-364 T226A limits assumed): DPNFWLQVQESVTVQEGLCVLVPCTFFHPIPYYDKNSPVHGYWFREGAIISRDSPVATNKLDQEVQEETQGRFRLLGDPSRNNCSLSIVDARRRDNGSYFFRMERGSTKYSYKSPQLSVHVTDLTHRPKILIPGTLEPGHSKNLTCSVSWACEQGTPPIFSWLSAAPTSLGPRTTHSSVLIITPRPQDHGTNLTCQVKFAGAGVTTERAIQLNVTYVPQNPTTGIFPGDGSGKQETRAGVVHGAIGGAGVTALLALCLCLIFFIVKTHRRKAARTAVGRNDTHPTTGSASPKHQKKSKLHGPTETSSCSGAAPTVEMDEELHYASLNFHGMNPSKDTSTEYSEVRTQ
Experiment: alanine scan, flow cytometry, HEK293-T;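 further: antibody binding to each alanine-substituted CD33 mutant expressed transiently in HEK293-T, read as fluorescence minus background, mean of duplicates, relative to wild-type CD33 set as 100%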
Give your result in % as a bare value.

Some solved cases for reference:
{"columns": ["binder", "Mean % WT Binding, %"],
 "data": [
  ["Refmab #3 (antibody, V domains shown, In the alanine scan antibodies were used as IgG or Fab) VH: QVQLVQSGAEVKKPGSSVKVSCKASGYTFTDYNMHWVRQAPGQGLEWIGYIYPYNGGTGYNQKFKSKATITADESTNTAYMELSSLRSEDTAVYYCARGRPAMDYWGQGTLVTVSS VL: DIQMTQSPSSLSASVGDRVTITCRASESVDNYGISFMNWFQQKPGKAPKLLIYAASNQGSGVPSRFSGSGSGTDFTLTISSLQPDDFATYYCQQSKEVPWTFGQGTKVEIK", 100],
  ["Refmab #4 (antibody, V domains shown, In the alanine scan antibodies were used as IgG or Fab) VH: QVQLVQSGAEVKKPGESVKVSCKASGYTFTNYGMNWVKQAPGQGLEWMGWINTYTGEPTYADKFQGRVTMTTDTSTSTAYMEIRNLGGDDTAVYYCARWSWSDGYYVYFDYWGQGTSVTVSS VL: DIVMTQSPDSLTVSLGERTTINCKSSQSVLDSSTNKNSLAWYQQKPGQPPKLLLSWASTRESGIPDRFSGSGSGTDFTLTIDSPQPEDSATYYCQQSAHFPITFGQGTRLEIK", 91.9],
  ["Refmab #1 (antibody, V domains shown, In the alanine scan antibodies were used as IgG or Fab; also called hP67.6) VH: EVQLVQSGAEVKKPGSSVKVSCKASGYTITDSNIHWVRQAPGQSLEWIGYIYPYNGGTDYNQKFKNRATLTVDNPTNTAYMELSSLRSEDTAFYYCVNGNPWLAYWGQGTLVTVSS VL: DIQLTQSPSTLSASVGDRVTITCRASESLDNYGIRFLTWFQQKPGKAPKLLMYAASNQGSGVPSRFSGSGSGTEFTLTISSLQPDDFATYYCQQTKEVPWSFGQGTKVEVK", 92]
]}

# next binder below
Problem: Given Refmab #2 (antibody, V domains shown, In the alanine scan antibodies were used as IgG or Fab) VH: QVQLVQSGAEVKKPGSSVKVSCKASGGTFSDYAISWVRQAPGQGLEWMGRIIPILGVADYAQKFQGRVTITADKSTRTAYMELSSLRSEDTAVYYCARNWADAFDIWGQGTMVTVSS VL: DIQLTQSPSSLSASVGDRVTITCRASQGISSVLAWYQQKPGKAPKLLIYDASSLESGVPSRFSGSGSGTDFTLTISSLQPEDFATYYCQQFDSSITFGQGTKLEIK , respond with its Mean % WT Binding.
Solution: 112
